The measurements presented in this section are drawn from patent US20250026849A1.

Target: T1, P26 (human, UniProt P02771 381-609, limits assumed)
T1 construct: also called AFP p26
T1 sequence: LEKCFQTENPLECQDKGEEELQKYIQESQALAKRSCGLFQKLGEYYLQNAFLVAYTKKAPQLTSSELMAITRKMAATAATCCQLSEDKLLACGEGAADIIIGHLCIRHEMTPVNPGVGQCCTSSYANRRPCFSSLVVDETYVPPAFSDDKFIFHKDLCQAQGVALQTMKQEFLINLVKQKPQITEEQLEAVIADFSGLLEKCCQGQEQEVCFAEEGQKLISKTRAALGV
Experiment: ELISA, format not described
Set-up: unit not given here
ENDPOINT: ELISA_avg
Form: value (number only, do not type unit).

Answered cases to consult:
D domain SEQ ID NO: 980 (designed binder) MGSWKNFKLELALIKSKLEALGGSEAELAQFEADIAFFEWSLQWYKGKGNPEVEALRKEAAAIRDELQAYRHN = 20.6
D domain SEQ ID NO: 960 (designed binder) MGSWIIFKTDLARIKNYLEALGGSEAELATFERDIAWFEFMLQIYKGKGNPEVEALRKEAAAIRDELQAYRHN = 16.7
D domain SEQ ID NO: 852 (designed binder) MGSWHEFITRLEAIDQRLWALGGSEAELAAFEKEIAAFESELQAYKGKGNPEVEYLRFWAAEIRFILQAYRHN = 16.9
D domain SEQ ID NO: 934 (designed binder) MGSWENFKDTLAWIKEYLEALGGSEAELAGFEHRIAIFEHYLQYYKGKGNPEVEALRKEAAAIRDELQAYRHN = 19.2
D domain SEQ ID NO: 984 (designed binder) MGSWNNFKSSLASIKQVLEALGGSEAELAVFELQIAHFERELQYYKGKGNPEVEALRKEAAAIRDELQAYRHN = 24.1

q: What value of ELISA_avg has been reported for the following binder? D domain SEQ ID NO: 937 (designed binder) MGSWEHFKVELAGIKAYLEALGGSEAELALFEWAIADFESILQDYKGKGNPEVEALRKEAAAIRDELQAYRHN
a: 18.1

q: Request the reported ELISA_avg associated with D domain SEQ ID NO: 895 (designed binder) MGSWMEFVDRLSAIDRRLWALGGSEAELAAFEKEIAAFESELQAYKGKGNPEVEVLREHAANIRQWLQAYRHN
a: 32.1

q: Reported ELISA_avg, binder D domain SEQ ID NO: 941 (designed binder) MGSWFLFKSELAWIKWRLEALGGSEAELAYFEYQIAEFEFWLQSYKGKGNPEVEALRKEAAAIRDELQAYRHN : ____
a: 25.8

q: Returns the measured ELISA_avg for the input binder. Input: D domain SEQ ID NO: 922 (designed binder) MGSWFEFSNRLYAIWHRLTALGGSEAELAAFEKEIAAFESELQAYKGKGNPEVESLRTQAAFIRILLQAYRHN
a: 15.2

q: For the binder D domain SEQ ID NO: 954 (designed binder) MGSWVRFKTELAYIKESLEALGGSEAELAMFESEIAIFEHSLQTYKGKGNPEVEALRKEAAAIRDELQAYRHN , what ELISA_avg is on record?
a: 20.5

q: Give its ELISA_avg value. Item: D domain SEQ ID NO: 879 (designed binder) MGSWEEFYYRLEAIDARLFALGGSEAELAAFEKEIAAFESELQAYKGKGNPEVEELRVHAAHIRDWLQAYRHN
a: 30.3

q: So what's the measured ELISA_avg for this one? D domain SEQ ID NO: 926 (designed binder) MGSWGEFTVRLYAIDRRLDALGGSEAELAAFEKEIAAFESELQAYKGKGNPEVEELRRFAAIIRAFLQAYRHN
a: 8.54

q: Fill in the blank: the reported ELISA_avg of D domain SEQ ID NO: 949 (designed binder) MGSWTLFKWDLAFIKWQLEALGGSEAELAWFEYEIAAFEDSLQNYKGKGNPEVEALRKEAAAIRDELQAYRHN is ____.
a: 12.1

q: // query ELISA_avg value for entry D domain SEQ ID NO: 982 (designed binder) MGSWVVFKSSLAQIKILLEALGGSEAELAIFEVKIAHFEQELQEYKGKGNPEVEALRKEAAAIRDELQAYRHN
a: 8.6

q: # query: ELISA_avg of entry D domain SEQ ID NO: 913 (designed binder) MGSWSEFYYRLAAIESRLFALGGSEAELAAFEKEIAAFESELQAYKGKGNPEVERLREHAAHIRRWLQAYRHN
a: 30.8

q: // ELISA_avg lookup, key: D domain SEQ ID NO: 977 (designed binder) MGSWIAFKDHLAIIKQRLEALGGSEAELARFEFEIAWFEWMLQYYKGKGNPEVEALRKEAAAIRDELQAYRHN
a: 29.9

q: Which ELISA_avg value belongs to D domain SEQ ID NO: 877 (designed binder) MGSWIEFYWRLEAIDQRLWALGGSEAELAAFEKEIAAFESELQAYKGKGNPEVEDLRVHAAAIRWWLQAYRHN ?
a: 9.4

q: Record request: ELISA_avg value, item D domain SEQ ID NO: 979 (designed binder) MGSWMVFKQDLAEIKANLEALGGSEAELADFEFAIAWFEYELQWYKGKGNPEVEALRKEAAAIRDELQAYRHN
a: 17.8

q: ELISA_avg lookup needed for D domain SEQ ID NO: 921 (designed binder) MGSWHEFYDRLYAIWDRLDALGGSEAELAAFEKEIAAFESELQAYKGKGNPEVEGLRNAAAVIRIFLQAYRHN , thanks.
a: 22.9
